These measurements were taken from patent US6620828B2.

Biological target: CHK1 (Homo sapiens)
Sequence (O14757 1-476): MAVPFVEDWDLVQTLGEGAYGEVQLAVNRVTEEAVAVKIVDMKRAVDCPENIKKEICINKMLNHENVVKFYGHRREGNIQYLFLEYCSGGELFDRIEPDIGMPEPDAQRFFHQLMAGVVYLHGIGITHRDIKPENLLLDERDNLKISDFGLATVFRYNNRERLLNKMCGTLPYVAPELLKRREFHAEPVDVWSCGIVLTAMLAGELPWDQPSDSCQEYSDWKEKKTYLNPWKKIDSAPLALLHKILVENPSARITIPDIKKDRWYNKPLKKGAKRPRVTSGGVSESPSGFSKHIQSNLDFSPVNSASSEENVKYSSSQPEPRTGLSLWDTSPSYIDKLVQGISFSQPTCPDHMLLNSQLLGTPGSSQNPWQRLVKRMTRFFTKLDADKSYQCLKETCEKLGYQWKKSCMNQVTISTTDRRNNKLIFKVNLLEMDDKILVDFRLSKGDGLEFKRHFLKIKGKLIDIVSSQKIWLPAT
Assay: CHK1 high-throughput screening
Assay type: biochemical
Details: read-out: % inhibition @ 20 μM, Table 4, repeated entries per example
Provide the reported inhibition at 20 µM of each item.
Give bare numbers, in %.

List inhibition at 20 µM for every entry below, keeping the order given.
1. Cc1cc(C)cc(Nc2nc(N)c(-c3nc(-c4cccc(NC(=O)c5ccccc5)c4)cs3)s2)c1
2. COc1ccc(Nc2nc(N)c(-c3nc(-c4cccc(NC(=O)c5ccccc5)c4)cs3)s2)cc1
3. Cc1ccc(Nc2nc(N)c(-c3nc(-c4cccc(NC(=O)OCc5ccccc5)c4)cs3)s2)cc1
4. Nc1nc(Nc2ccc(S(N)(=O)=O)cc2)sc1-c1nc(-c2cccc(O)c2)cs1
5. Cc1ccc(-c2csc(-c3sc(Nc4ccc(S(N)(=O)=O)cc4)nc3N)n2)cc1

1: -0.1; 2: 2; 3: 2.8; 4: 35.4; 5: 13.3
